Examples of compounds with documented IC50 follow.
Assay: Cytotoxicity against human EC109 cells assessed as reduction in cell viability after 72 hrs by MTT assay
Format: functional, cell-based
Settings: ECa-109, 72 h
parameter measured: IC50 (µM)

[[record]]
cpd_smiles = "O=C1C(=Cc2c[nH]c3ccccc23)C(=O)N(c2ccc(Cl)cc2)N1c1ccc(Cl)cc1"
parameter_measured = "IC50"
limit_operator = "="
endpoint_result = 23.4

[[record]]
cpd_smiles = "O=C1C(=Cc2ccc(F)cc2)C(=O)N(c2ccc(Cl)cc2)N1c1ccc(Cl)cc1"
parameter_measured = "IC50"
limit_operator = "="
endpoint_result = 35.6

[[record]]
cpd_smiles = "COc1cccc(C=C2C(=O)N(c3ccc(Cl)cc3)N(c3ccc(Cl)cc3)C2=O)c1"
parameter_measured = "IC50"
limit_operator = "="
endpoint_result = 29

[[record]]
cpd_smiles = "CC(=C1C(=O)N(c2ccc(Cl)cc2)N(c2ccc(Cl)cc2)C1=O)c1ccc(O)cc1"
parameter_measured = "IC50"
limit_operator = "="
endpoint_result = 55.6

[[record]]
cpd_smiles = "CN(C)c1ccc(C=C2C(=O)N(c3ccc(Cl)cc3)N(c3ccc(Cl)cc3)C2=O)cc1"
parameter_measured = "IC50"
limit_operator = ">"
endpoint_result = 128


* * *

Experiment: Cytotoxicity against human MGC803 cells assessed as reduction in cell viability after 72 hrs by MTT assay
Type: functional, cell-based
Settings: MGC-803, 72 h
pIC50: −log10 of the molar value.
parameter measured: pIC50

[[record]]
compound = "O=C1C(=Cc2ccc(O)cc2)C(=O)N(c2ccc(Cl)cc2)N1c1ccc(Cl)cc1"
endpoint_result = 4.71

[[record]]
compound = "O=C1C(=Cc2ccc(F)c(F)c2)C(=O)N(c2ccc(Cl)cc2)N1c1ccc(Cl)cc1"
endpoint_result = 4.45

[[record]]
compound = "O=C1C(=Cc2ccc(Br)cc2)C(=O)N(c2ccc(Cl)cc2)N1c1ccc(Cl)cc1"
endpoint_result = 4.77

[[record]]
compound = "COc1cccc(C=C2C(=O)N(c3ccc(Cl)cc3)N(c3ccc(Cl)cc3)C2=O)c1"
endpoint_result = 4.58

[[record]]
compound = "COc1cc(C=C2C(=O)N(c3ccc(Cl)cc3)N(c3ccc(Cl)cc3)C2=O)cc(OC)c1OC"
endpoint_result = 4.76

[[record]]
compound = "COc1cccc(C=C2C(=O)N(c3ccc(Cl)cc3)N(c3ccc(Cl)cc3)C2=O)c1O"
endpoint_result = 4.61

[[record]]
compound = "O=c1[nH]cc(F)c(=O)[nH]1 [FLUOROURACIL]"
endpoint_result = 5.04

[[record]]
compound = "COc1cccc(C=C2C(=O)N(c3ccc(Cl)cc3)N(c3ccc(Cl)cc3)C2=O)c1OC"
endpoint_result = 4.53

[[record]]
compound = "CC(C)=C1C(=O)N(c2ccc(Cl)cc2)N(c2ccc(Cl)cc2)C1=O"
endpoint_result = 4.41


* * *

Assay: Cytotoxicity against human GES-1 cells assessed as cell viability at 20 uM after 72 hrs by MTT assay relative to control
Type: cell-based, GES1
Details: read-out: Activity
parameter measured: viability at 72 h, 20 µM

[[record]]
cpd_smiles = "O=C1C(=C/C=C/c2ccccc2)C(=O)N(c2ccc(Cl)cc2)N1c1ccc(Cl)cc1"
parameter_measured = "viability at 72 h, 20 µM"
endpoint_result = "75%"

